Here's a roundup of pIC50 values tested on Aurora kinase A (Homo sapiens), taken from various published works.
pIC50: −log10 of the molar value.

CCOCCOCCn1nc(CC)c(NC(=O)c2ccn3c2CCc2cnc(Nc4ccc(N5CCNCC5)cc4OC)nc2-3)c1CC : ≤ 7.00

Input: Form field - read-out: pIC50; system: Aurora kinase A (Homo sapiens); submitted item: COCCOCCOCCn1nc(C)c(NC(=O)c2ccn3c2CCc2cnc(Nc4ccc(N5CCN(C)CC5)cc4OC)nc2-3)c1C
Output: ≤ 7.00

Input: Form field - read-out: pIC50; system: Aurora kinase A (Homo sapiens); submitted item: O=C(c1ccnc(F)c1)N1CCN(Cc2cccc(Nc3ncc(Br)s3)n2)CC1
Output: 7.59

Input: Form field - read-out: pIC50; system: Aurora kinase A (Homo sapiens); submitted item: Cc1cc(Nc2cccc(CN3CCN(C(=O)c4cccc(C(F)(F)F)c4Cl)CC3)n2)n[nH]1
Output: 8.96

Input: Form field - read-out: pIC50; system: Aurora kinase A (Homo sapiens); submitted item: Cn1cc(-c2n[nH]c3cc(-c4ccc(NC(=O)Nc5ccccc5Cl)cc4)ccc23)cn1
Output: 6.61

Input: Form field - read-out: pIC50; system: Aurora kinase A (Homo sapiens); submitted item: COc1cc(Nc2nccc(-c3c(C)[nH]c(C#N)c3C)n2)cc(OC)c1OC
Output: 6.77

Input: Form field - read-out: pIC50; system: Aurora kinase A (Homo sapiens); submitted item: COc1cc2c(Oc3ccc(NC(=O)c4ccccc4)cc3)ccnc2cc1OCC[C@H](NC(=O)OC(C)(C)C)C(=O)O
Output: > 5.70

Input: Form field - read-out: pIC50; system: Aurora kinase A (Homo sapiens); submitted item: Cn1cc(Nc2ncc(Cl)c(N[C@@H]3COC4C3OC[C@@H]4NS(=O)(=O)CC3CC3)n2)cn1 (stereo partly shown)
Output: 8.30
